System: MS2 coat protein
procedure-text: apparent KD of MS2 coat protein, switch ON state; designed switch direction (-1 OFF switch, 1 ON switch): -1; higher = weaker reporter binding
test-conditions: FMN input: 0 or 200 uM; Eterna round: R93 (includes R88 designs)
property: apparent KD of MS2 coat protein (nM)
Number only, in nM; omit the unit.

Ask | Field request: apparent KD of MS2 coat protein | item: GAAUGCAGAGGAUAUACGGGAUAGCAUCGAAAGAUGCUAAAACAUGAGGAUCACCCAUGUAGAAGGCUGCAGAA [JL Mod 02]
Reply | 58

Ask | AAAAAUGCAGGAUAUACGUACAUGUCAAAAGACGUGAAGGGACAUGAGGAUCACCCAUGUAGAAGGGUAAAGAA [JL Neck Breaker 15] , same question.
Reply | 237

Ask | AAAAAGUGAGGAUAUACGCUGUGGAGUAGACACAACCAGUCGUAGAAGGCACAUGAGGAUCACCCAUGUCCAAA [EX4 Malc#19] , same question.
Reply | 22

Ask | Ok, now AGGAGACAUGAGGAUCACCCAUGUUAGGAUAUGAACGAAAAUAAAUAAAAAUAAAAGUUCAGAAGGAACGAAAA [66%, Wbt, 9]
Reply | 45.1

Ask | Subsequent entry: AAGAAACAUGAGGAUCACCCAUGUAAGGAUAUGAAAAAGAAAAGAAAAGAAAGAAGAAUCAGAAGGUACAAAGG [Nakhtnebtepnefer Intef III]
Reply | 24.1

Ask | Repeat with GGAAAACAUGAGGAUCACCCAUGUAAGGAUAUGCAAAAAAAAAAGGAUAUAGAAGGAAGCAGAAGGUACAAAGG [salish99-ex1-28]
Reply | 24.5

Ask | Similarly, CGGGAGUCAGGAUAUACGAACAUGUCGCCAGAUGUCAAGGUACAUGAGGAUCACCCAUGUAGAAGGGAGGAGAG [salish99-Ex2-34] ?
Reply | 80.8

Ask | Next up: GAAAAACAUGAGGAUCACCCAUGUAAGGAUAUGCUAAAAAACACGGAAAAACGUGAUAGCAGAAGGUACAAAAG [Mat - Exclusion 1 - Eli mod - D88]
Reply | 19.8

Ask | Moving on to the next sequence: AAGAAACAUGAGGAUCACCCAUGUCAGGAUAUGUAAAAGAAAAGAAAAGAAAGAAGAAACAGAAGGGACAAAGG [Neferkaure]
Reply | 83.9

Ask | What do we get for AUAAACUGAGGAUAUACAUGAGGAUCACCCAUGUAAAAAAAGAAAUGAUCCUCAGGAAGUAGAAGGCAGAAUAA [JR_Exc003_Sub017] ?
Reply | 13.2

Ask | // repeat for AAGAAAGCAGGAUAUACAUGAGGAUCACCCAUGUAAAAGAAAGAGGGAAAAGAGAAAAGUAGAAGGGCUAAGAA [Cleopatra IV] and report
Reply | 37.3

Ask | Then this sequence: AAGACUACAGGAUAUACAUGAGGAUCACCCAUGUAACUGACAAGUAGAGUACGGAGAAGUAGAAGGGUAGUCAA [Ruby 34]
Reply | 14.9

Ask | What about AAGAACCAAGGAUAUACAUGAGGAUCACCCAUGUAAAAGAAAGAAAGGGAAAAGAAAAGUAGAAGGUGGAAGAA [Takelot I] ?
Reply | 28.1

Ask | Quick one: AAGAAGUCAGGAUAUGCCAGAGAUCACGAAAGUGACUAAGGGCAGAAGGGACAUGAGGAUCACCCAUGUAAAGA [Opal 5]
Reply | 63.4

Ask | // query: AACUGACAUGAGGAUCACCCAUGUCAGGAUAUGACAUCGAAAAAAAAAAAAAUCGUUGUCAGAAGGGACAUGGA [Design 74: Sub-opt R]
Reply | 20.9

---

Tested on: MS2 coat protein
procedure-text: apparent KD of MS2 coat protein; designed switch direction (-1 OFF switch, 1 ON switch): 1; higher = weaker reporter binding
test-conditions: Eterna round: R95; input ligand: none
Give measured apparent KD of MS2 coat protein for each item. Keep answers brief.
Give just the numeric value; nM need not be written.

Ask | Under MS2 coat protein: apparent KD of MS2 coat protein value of CUUGAUACACAUGAGGAUCACCCAUGUAUCAAGCUUUUUGCUCGUGUUAUUAUUUCCUUUAUUAGGAAUAUUAGGAA [rhiju-sequester-tail] (puzzle: Sensor for hsa-mir-208a version 2) ?
Reply | 23.7

Ask | Try the sequence GGAGCCGGCACCGAGGAUAUUCAUAUUAAAACAUGAGGAUCACCCAUGUAGAGCAGAAGCUCUUGGGAGAAGGCGGAUCGGCUCG [Xeonanis - 27] (puzzle: Same State 2)
Reply | 549

Ask | One more sequence: AGUCCAGCCUGAGCUGGACUGAAGCAUGUACAUGAGGAUCACCCAUGUUCAUGUACAGGCUUUUUGCUCGUCUUAUG [JL-shm-2.02 JL mod] (puzzle: Sensor for hsa-mir-208a)
Reply | 879

---

Test system: MS2 coat protein
procedure-text: apparent KD of MS2 coat protein; higher = weaker reporter binding
test-conditions: Eterna round: R107; input ligand: arginine 13.2 mM
property: apparent KD of MS2 coat protein (µM)
Unit µM implied. Number only.

Ask | May I ask what apparent KD of MS2 coat protein has been recorded for GCAAAGUGAUCGGCCGCCACUGCAAUGCUUAAUGGAGGUCCACAUGAGGAUCACCCAUGUCUUCCCAGGACCGGGAUCUCGAGUU [theeternabot_sameState_MS2_Trp_B_3] ?
Reply | 0.059

Ask | Same again, this time with AGUUUAGACACGGCCGCCACUCGUGACAGAUUUCGCAGUGGUCAACAUGAGGAUCACCCAUGUCUGAGGACCGGGUGUUGAGUUU [XTryp B #7]
Reply | 0.0452

Ask | Field entry: AGCUCUGAUACGGCCGCCACUAGAUGGUGUUGUAAGAGACGCCUACAUGAGGAUCACCCAUGUCAUAGGACCGGGUAUAAAUACA [theeternabot_sameState_MS2_Trp_B_8]
Reply | 0.0278

---

I'd be grateful if you could share measured apparent KD of MS2 coat protein for these entries.
System: MS2 coat protein
procedure-text: apparent KD of MS2 coat protein; higher = weaker reporter binding
test-conditions: Eterna round: R107; input ligand: theophylline 2 mM
Give the value in µM but do not write µM after it.

Ask | Which apparent KD of MS2 coat protein value belongs to ACAUGAGGAUCACCCAUGUACGGUAUCAAUCGAGGACCGGUACGGCCGCCACUCGGAAAUAGAAGCGAUUAUUAGUGUUCUUUGU [Same State - Tryptophan A / A] ?
Reply | 0.0166

Ask | Item: GGGUGGUAGGCGGCCGCCACUGAUUUUCAUUUAUAGAUGACAUGAGGAUCACCCAUGUUUAUGUGCAGGACCGGGCCUGCUGUGG [aaaT]
Reply | 0.137

Ask | Cool, now UAUUAUCAGUCGGCCGCCACUGACACAUGAGGAUCACCCAUGUAAUUUGGGUUAUAUAGAAAAUACAGGACCGGGACUAAGGCUA [JR_ExcTryptoB_Sub014]
Reply | 0.326

Ask | # iterate: UGUAAUGGGAUCAACCCAUGAGAGUCUGAAGGAGCGAUCGUAAGAUCAGGUAGGUCGCGGGAGACAUGAGGAUCACCCAUGUAUA [#23 Exclusion - Arginine A]
Reply | 0.0443

Ask | Another sequence to check: UGUAUGGACUGAAGGAGCGCCUCAAAAUAACAUGAGGAUCACCCAUGUGGCGAAAGCCAAGGGCAGGUAGGUCGCAGUCCAUACU [ArgBX 4 #StaticStem #MS2Late]
Reply | 0.0329

Ask | Then this sequence: UGUAUGUGAUCUGAUACCAGAGAUGAUAACCUGAGGAUCACCCUGGUAAGGCGAAAGCCACUCCCUUGGCAGCAGAUCGCAUACU
Reply | 0.0263

Ask | Same thing, different sequence: AGUUUAGACACGGCCGCCACUCGUGACAGAUUUCGCAGUGGUCAACAUGAGGAUCACCCAUGUCUGAGGACCGGGUGUUGAGUUU [XTryp B #7]
Reply | 0.0534

Ask | Could you do the same for UAUAUAUAUCACUAACUGUUCUUGAGGUCUCGAGGACCGGUACGGCCGCCACUCGUACCGCCUCACAUGAGGAUCACCCAUGUCC [XTryp A #1] , please?
Reply | 0.0976

Ask | Please answer likewise for GUGCCGCAUUCACAUGAGGAUCACCCAUGUCGAGGACCGGUACGGCCGCCACUCGACGUGCUUACAGGUCCUUUACGGCCCAAUA [Biedxele]
Reply | 0.0369

Ask | Please do the same for ACAUGAGGAUCACCCAUGUAUUACCGGGAAGGAGCGCGUAAGGACGCAGGUAGGUCGCUCGGCGUCCGGCCGCAAGGCUGGACGA [#1 Same State - Arginine A Attempt #17 (HarryS)] as well.
Reply | 0.0164

Ask | One more sequence: ACAUGAGGAUCACCCAUGUUUGUUGUUCCUCGAGGACCGGUACGGCCGCCACUCGAACGAGUGGCACGCGAGUGCGCACUCGCGU [aPa]
Reply | 0.0131

Ask | Follow-up item: AUGCCGGGCCGAAGGAGCGCAAUAGAAUGACAUGAGGAUCACCCAUGUGUGUGAUGUGGGUUGCAGGUAGGUCGCGGCCCGGCAU [#12 Exclusion - Arginine B]
Reply | 0.0627
